Molecular target: human Insulin-like growth factor 1 receptor (IGF-1R) (human, UniProt P08069 31-1367)
Sequence (P08069 31-1367 limits assumed): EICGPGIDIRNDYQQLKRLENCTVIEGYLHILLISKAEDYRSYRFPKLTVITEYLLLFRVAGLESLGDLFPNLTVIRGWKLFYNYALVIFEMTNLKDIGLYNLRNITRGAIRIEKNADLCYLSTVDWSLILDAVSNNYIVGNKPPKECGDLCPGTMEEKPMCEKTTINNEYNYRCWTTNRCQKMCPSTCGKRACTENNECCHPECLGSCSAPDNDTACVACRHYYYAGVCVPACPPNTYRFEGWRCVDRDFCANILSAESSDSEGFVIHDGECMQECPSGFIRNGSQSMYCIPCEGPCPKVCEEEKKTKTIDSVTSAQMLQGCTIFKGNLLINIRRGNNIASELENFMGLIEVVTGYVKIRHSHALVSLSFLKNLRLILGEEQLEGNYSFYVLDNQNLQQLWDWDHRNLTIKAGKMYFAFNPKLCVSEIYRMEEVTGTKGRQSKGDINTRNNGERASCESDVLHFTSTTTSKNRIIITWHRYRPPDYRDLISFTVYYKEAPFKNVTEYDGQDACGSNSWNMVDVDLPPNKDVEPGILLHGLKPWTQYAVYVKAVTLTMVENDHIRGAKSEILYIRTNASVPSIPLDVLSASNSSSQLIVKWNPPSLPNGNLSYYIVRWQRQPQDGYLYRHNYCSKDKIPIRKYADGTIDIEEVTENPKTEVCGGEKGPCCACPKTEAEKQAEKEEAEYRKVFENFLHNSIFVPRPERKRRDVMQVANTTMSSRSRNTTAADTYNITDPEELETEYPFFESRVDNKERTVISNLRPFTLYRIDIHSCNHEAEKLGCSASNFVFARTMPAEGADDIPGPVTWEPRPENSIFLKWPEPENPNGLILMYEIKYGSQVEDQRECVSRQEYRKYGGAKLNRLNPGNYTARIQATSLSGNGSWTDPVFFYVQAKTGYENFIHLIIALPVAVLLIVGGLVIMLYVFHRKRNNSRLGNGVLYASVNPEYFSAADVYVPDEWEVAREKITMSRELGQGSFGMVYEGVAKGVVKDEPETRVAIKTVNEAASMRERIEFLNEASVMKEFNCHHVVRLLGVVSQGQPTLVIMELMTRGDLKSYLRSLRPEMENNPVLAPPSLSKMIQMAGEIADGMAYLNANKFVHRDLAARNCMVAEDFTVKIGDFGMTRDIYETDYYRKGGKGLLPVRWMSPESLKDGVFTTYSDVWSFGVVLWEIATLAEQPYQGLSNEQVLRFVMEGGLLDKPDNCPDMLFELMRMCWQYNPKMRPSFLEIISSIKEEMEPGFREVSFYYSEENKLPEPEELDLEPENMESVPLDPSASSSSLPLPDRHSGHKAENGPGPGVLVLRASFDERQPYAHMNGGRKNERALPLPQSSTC
Assay: cell-based or functional assay
Where no end group is shown, it is not given here. [ ]: non-standard residue; d: D form.
Sorting guide: entries reporting EC50, IGF-1 (50 ng/ml)-induced proliferation, MCF-7 beneath 40 nM go in the Criterion met pile, the rest go in the Criterion not met pile.

As a guide, the following entries are already answered.
ENFLHLLLA [APG-205]
Criterion met
[dS][dL][dF][dV][dP][dR][dP][dE][dR][dK] [APG-201]
Criterion met
RTNASVPSI [APG-203]
Criterion met
[dE][dS][dD][dV][dL][dH][dF][dT][dS][dT] [APG-202]
Criterion not met

Field: next binder
**Query** # strict comparison: is reported EC50, IGF-1 (50 ng/ml)-induced proliferation, MCF-7 < 40 nM? input = KERTVISNLR [APG-206]
**Result** Criterion met

From: patent US20090048161A1
